tested on: EBV-transformed LCL viability, CellTiter-Glo ATP luminescence, 48 h; test: EBV-transformed lymphoblastoid cell viability decrease, dose response, EBV LMP1 NF-kB inhibitor project, CellTiter-Glo, dry powder, replicate tests (AID 624375)
Results filed as inconclusive are left out.
Measured AC35 accompanies every entry in the list below.

Would you please look over these solved cases?
S=C(N/N=C(\c1ccccc1)c1ccccn1)N(Cc1ccccn1)Cc1ccccn1 = 0.135 µM
C/C(=N\NC(=S)Nc1cccc(C)c1)c1ccccn1 = < 0.08 µM

Problem: Please look up its AC35: `C/C(=N\NC(=S)N1CCCCC1)c1ccccn1`
Solution: < 0.08 µM

Problem: Please look up its AC35: `Cc1ccnc(NC(=O)c2ccc(C(=O)c3ccccc3)cc2)c1`
Solution: 24.1 µM

Problem: Please look up its AC35: `C/C(=N\NC(=S)N1CCN(c2ccccn2)CC1)c1ccccn1`
Solution: < 0.08 µM

Problem: Please look up its AC35: `C/C(=N\NC(=S)N1CC2CCC(CC2)C1)c1cccc(C)n1`
Solution: 0.409 µM

Problem: Please look up its AC35: `CSC(=S)N/N=C(\C)c1cccc(C)n1`
Solution: 0.687 µM

====

Measured activity change, negative = inhibition accompanies every entry in the list below.
assay: EBV-transformed lymphoblastoid cell viability decrease, dose response, EBV LMP1 NF-kB inhibitor project, CellTiter-Glo, dry powder, replicate tests (AID 624375); details: EBV-transformed LCL viability, CellTiter-Glo ATP luminescence, 48 h; at 19.5 µM (top of the series)
Records with an inconclusive call do not appear.
All answers are understood in %, so give the number only.

Would you please look over these solved cases?
CCn1c2ccccc2c2cc(/C=N/n3cnnc3)ccc21 = -4.23
C[C@@H]1CCCCO[C@@H](CN(C)Cc2ccccc2)[C@H](C)CN([C@H](C)CO)C(=O)c2cc(NC(=O)Nc3ccc4c(c3)OCO4)ccc2O1 = 1.71
C=CCN1Cc2ccccc2[C@@H]2OC(c3ccc(OCCCO)cc3)=N[C@]2(CCC(=O)OC(C)(C)C)C1=O = 1.04
C[C@@H]1CCCCO[C@H](CN(C)C(=O)c2ccccc2)[C@H](C)CN([C@@H](C)CO)C(=O)c2cc(NC(=O)Nc3ccc(F)cc3)ccc2O1 = 2.16
CCc1ccc(/C=C/C(=O)C2C(=O)c3ccccc3C2=O)cc1 = 10.9

Problem: Please look up its activity change, negative = inhibition: `CCc1ccc(/C=C2\SC(=S)N(CCCC(=O)Nc3ccccn3)C2=O)cc1`
Solution: 3.41

Problem: Please look up its activity change, negative = inhibition: O=C(CCc1ccccc1)NC(c1cccs1)c1cc(Cl)c2cccnc2c1O (stereo not given)
Solution: 4.93

====

Measured activity change, negative = inhibition accompanies every entry in the list below.
experiment: EBV-transformed lymphoblastoid cell viability decrease, dose response, EBV LMP1 NF-kB inhibitor project, CellTiter-Glo, dry powder, replicate tests (AID 624375); conditions: EBV-transformed LCL viability, CellTiter-Glo ATP luminescence, 48 h; at 19.5 µM (top of the series)
Inconclusive results are not listed. The source made the active and inactive calls.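 The calls were made as follows: active = fitted curve reaches -35% activity change at a concentration under twice the top valid dose, in every replicate test; inconclusive = replicate tests disagree on the call; inactive = the rest, including activity in the opposite direction.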

Problem: Please look up its activity change, negative = inhibition: `CCCSc1nnc2c3ccccc3n(Cc3ccccc3)c2n1`
Solution: -1.02% (inactive)

====

test system: EBV-transformed LCL viability, CellTiter-Glo ATP luminescence, 48 h; assay: EBV-transformed lymphoblastoid cell viability decrease, dose response, EBV LMP1 NF-kB inhibitor project, CellTiter-Glo, dry powder, replicate tests (AID 624375)
Inconclusive results are not listed.
Quantity: AC35

Would you please look over these solved cases?
CCN1CCN(C(c2cccnc2)c2cc(Cl)c3cccnc3c2O)CC1 (configuration not stated) = 26.5 µM
C[C@@H]1CN([C@@H](C)CO)C(=O)c2cccc(NC(=O)Nc3cccc4ccccc34)c2O[C@H]1CN(C)C(=O)Nc1ccc(C(F)(F)F)cc1 = 29.8 µM
CC(C)=CCN(C(=O)C#Cc1ccccc1)[C@H](CO)c1ccccc1 = 8.22 µM
C/C(=N\NC(=S)Nc1cccc(Cl)c1)c1ccccn1 = < 0.08 µM

Problem: Please look up its AC35: `C[C@H](CO)N1C[C@H](C)[C@@H](CN(C)Cc2ccc(-c3ccccc3)cc2)Oc2ccc(NC(=O)Nc3cccc4ccccc34)cc2CC1=O`
Solution: 28.8 µM

Problem: Please look up its AC35: `COc1ccccc1NC(=S)N/N=C(\C)c1ccccn1`
Solution: < 0.08 µM

Problem: Please look up its AC35: `S=C(NCc1ccccn1)N/N=C/c1ccccn1`
Solution: < 0.08 µM
